- SYSTEM NAME: hMC2 receptor (crude hMC2R membranes from CRE-bla-CHO-K1 cells stably expressing hMC2 receptor and hMRAP accessory protein) (Homo sapiens)
- Construct: crude membrane fractions
- ASSAY: hMC2 membrane binding assay ([125I]ACTH (1-39) Tyr23, SPA)
- EXPERIMENTAL CONTEXT: displacement of 0.2 nM [125I]ACTH (1-39) Tyr23 from hMC2R membranes, 1.5 hours at room temperature; read-out: MC2R binding potency
pKi: −log10 of the molar value.
ENDPOINT NAME: pKi

Below, 5 compounds whose answers are already recorded.
COMPOUND: COc1ccccc1-c1ccc(C2(C(=O)NC[C@H]3CCN3C)CCN(c3ccc(C(F)(F)F)cc3C#N)CC2)cn1 [Compound 1-244]
pKi: > 8.00
--
COMPOUND: CCOc1ncccc1-c1ccc(C2(C(=O)N[C@@H]3CCN(C)C3)CCN(c3c(Cl)cc(C(F)(F)F)cc3C#N)CC2)cc1 [Compound 1-29]
pKi: 7.00 to 8.00
--
COMPOUND: CCOc1ncccc1-c1ccc(C2(NC(=O)N3CC[C@H](NC)C3)CCN(c3ccc(C(F)(F)F)cc3C#N)CC2)cn1 [Compound 2-24]
pKi: > 8.00
--
COMPOUND: CCOc1ccccc1-c1ccc(C2(C(=O)N[C@H]3CCN(C)C3)CCN(c3ccc(C(F)(F)F)cc3C#N)CC2)cn1 [Compound 1-30]
pKi: > 8.00
--
COMPOUND: CCOc1ncccc1-c1ccc(C2(C(=O)NCCNC)CCN(c3ccc(C(F)(F)F)cc3C#N)CC2)cn1 [Compound 1-14]
pKi: > 8.00

Give one value of pKi per listed compound.
1. CCOc1ncccc1-c1ncc(C2(C(=O)NCCNC)CCN(c3ccc(C(F)(F)F)cc3Cl)CC2)cc1F [Compound 1-299]
2. COc1ccccc1-c1ccc(C2(NC(=O)N[C@@H]3CCN(C)C3)CCN(c3ccc(C(F)(F)F)cc3C#N)CC2)cn1 [Compound 2-56]
3. CO[C@@H]1CN(C)C[C@@H]1NC(=O)C1(c2ccc(-c3cccn3C)nc2)CCN(c2ccc(C(F)(F)F)cc2C#N)CC1 (racemic) [Compound 1-267]
4. CN1CC[C@H](NC(=O)C2(c3ccc(-c4ncoc4C4CC4)nc3)CCN(c3ccc(C(F)(F)F)cc3C#N)CC2)C1 [Compound 1-182]
5. CCc1ncccc1-c1ccc(C2(C(=O)N[C@H]3CCN(C)C3)CCN(c3ccc(C(F)(F)F)cc3Cl)CC2)cn1 [Compound 1-172]

Result block:
["> 8.00", "> 8.00", "> 8.00", "7.00 to 8.00", "> 8.00"]

---

Assign pKi to each entry below.
- SYSTEM NAME: hMC2 receptor (crude hMC2R membranes from CRE-bla-CHO-K1 cells stably expressing hMC2 receptor and hMRAP accessory protein) (Homo sapiens, UniProt Q01718)
- Sequence (Q01718 whole entry): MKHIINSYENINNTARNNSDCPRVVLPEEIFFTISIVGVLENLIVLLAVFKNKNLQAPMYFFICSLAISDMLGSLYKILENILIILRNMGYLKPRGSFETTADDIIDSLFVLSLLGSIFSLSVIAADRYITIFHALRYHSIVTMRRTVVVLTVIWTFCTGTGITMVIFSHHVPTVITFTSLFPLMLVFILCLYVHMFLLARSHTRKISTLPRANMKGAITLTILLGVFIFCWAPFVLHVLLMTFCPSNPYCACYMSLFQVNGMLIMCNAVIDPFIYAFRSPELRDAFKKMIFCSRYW
- Sequence (Q8TCY5 whole entry partner): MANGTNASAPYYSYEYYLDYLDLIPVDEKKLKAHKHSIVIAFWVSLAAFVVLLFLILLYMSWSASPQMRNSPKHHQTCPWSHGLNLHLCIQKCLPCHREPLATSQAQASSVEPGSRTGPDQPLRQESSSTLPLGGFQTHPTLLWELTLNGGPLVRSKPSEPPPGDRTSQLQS
pKi: −log10 of the molar value.

SMILES: CCOc1ncccc1-c1ncc(C2(C(=O)N[C@@H]3CCN(C)C3)CCN(c3ccc(C(F)(F)F)cc3C#N)CC2)cn1
pKi: > 8.00
--
SMILES: CCCc1ccccc1-c1ccc(C2(C(=O)N[C@@H]3CCN(C)C3)CCN(c3ccc(C(F)(F)F)cc3C#N)CC2)cn1
pKi: > 8.00
--
SMILES: CCOc1ncccc1-c1ccc(C2(NC(=O)O[C@H]3CCN(C)C3)CCN(c3ccc(C(F)(F)F)cc3C#N)CC2)cc1
pKi: 7.00 to 8.00
--
SMILES: CCOc1ncccc1-c1ccc(C2(NC(=O)C3CN(C)C3)CCN(c3ccc(Cl)cc3C#N)CC2)cn1
pKi: > 8.00

I need pKi for every entry listed below, if you could help.
1. COc1ccccc1-c1ccc(C2(NC(=O)NC3CN(C)C3)CCN(c3ccc(C(F)(F)F)cc3C#N)CC2)cn1
2. COc1ncccc1-c1ncc(C2(C(=O)N[C@@H]3CCN(C)C3)CCN(c3ccc(C(F)(F)F)cc3C#N)CC2)cc1F

Result block:
1: 7.00 to 8.00; 2: > 8.00

Query block: What value of pKi has been reported for the following compound? COc1ccccc1-c1ccc(C2(C(=O)N[C@H]3CCN(C)C3)CCN(c3ccc(C(F)(F)F)cc3Cl)CC2)cn1
Result block: > 8.00

---

Would you mind telling me the reported pKi of each entry?
- SYSTEM NAME: hMC2 receptor (crude hMC2R membranes from CRE-bla-CHO-K1 cells stably expressing hMC2 receptor and hMRAP accessory protein) (Homo sapiens, UniProt Q01718)
pKi: −log10 of the molar value.

Example entries and their recorded answers appear below.
SMILES: COc1ccccc1-c1ncc(C2(C(=O)N[C@@H]3CCN(C)C3)CCN(c3ccc(C(F)(F)F)cc3C#N)CC2)cc1F
pKi: > 8.00
//
SMILES: COc1ccccc1-c1ccc(C2(C(=O)NC[C@@H]3C[C@@H](F)CN3C)CCN(c3ccc(C(F)(F)F)cc3C#N)CC2)cn1
pKi: > 8.00
//
SMILES: CN1CC[C@H](NC(=O)C2(c3ccc(-c4ccccn4)nc3)CCN(c3ccc(C(F)(F)F)cc3C#N)CC2)C1
pKi: 7.00 to 8.00
//
SMILES: COc1ccccc1-c1ccc(C2(C(=O)NC[C@@H]3C[C@@H](F)CN3)CCN(c3ccc(C(F)(F)F)cc3C#N)CC2)cn1
pKi: > 8.00
//
SMILES: CCOc1ncccc1-c1ccc(C2(C(=O)N[C@H]3CCN(C)C3)CCN(c3ccc(C(F)(F)F)cc3C#N)CC2)nn1
pKi: > 8.00

Moving on to the next compound.
Query block: Given the entry CCOc1ccccc1-c1ccc(C2(C(=O)N[C@H]3CCN(C)C3)CCN(c3ccc(F)cc3C#N)CC2)cn1 , report its measured pKi.
Result block: > 8.00

---

Would you kindly list Ki for each of these compounds?
- SYSTEM NAME: hMC2 receptor (crude hMC2R membranes from CRE-bla-CHO-K1 cells stably expressing hMC2 receptor and hMRAP accessory protein) (Homo sapiens)

Worked examples follow.
COMPOUND: CCOc1ncccc1-c1ccc(C2(C(=O)N[C@@H]3CCNC3)CCN(c3ccc(C(F)(F)F)cc3C#N)CC2)cc1
Ki: < 10 nM
--
COMPOUND: COc1ccccc1-c1ncc(C2(NC(=O)O[C@@H]3CCN(C)C3)CCN(c3ccc(C(F)(F)F)cc3C#N)CC2)cc1F
Ki: < 10 nM
--
COMPOUND: Cn1cccc1-c1ccc(C2(C(=O)N[C@@H]3C[C@@H]3N)CCN(c3ccc(C(F)(F)F)cc3C#N)CC2)cn1 (racemic)
Ki: < 10 nM
--
COMPOUND: CN1CC[C@@H](NC(=O)C2(c3ccc(-c4ccccc4C#N)nc3)CCN(c3ccc(C(F)(F)F)cc3C#N)CC2)C1
Ki: < 10 nM
--
COMPOUND: CCOc1ccccc1-c1ncc(C2(C(=O)N[C@H]3CCN(C)C3)CCN(c3ccc(C(F)(F)F)cc3Cl)CC2)cc1F
Ki: < 10 nM

Batch: Ki for all items listed.
1. CN(C)CCNC(=O)C1(c2ccc(-c3cccn3C)nc2)CCN(c2ccc(C(F)(F)F)cc2Cl)CC1
2. CCCOc1ccccc1-c1ccc(C2(C(=O)N[C@@H]3CCN(C)C3)CCN(c3ccc(C(F)(F)F)cc3C#N)CC2)cn1

Result block:
["< 10 nM", "< 10 nM"]

---

Field: Ki. Provide a value for each of the compounds that follow.
- SYSTEM NAME: hMC2 receptor (crude hMC2R membranes from CRE-bla-CHO-K1 cells stably expressing hMC2 receptor and hMRAP accessory protein) (Homo sapiens, UniProt Q01718)

Some entries whose results are on file:
COMPOUND: CCOc1ncccc1-c1ccc(C2(NC(=O)O[C@@H]3CCN(C)C3)CCN(c3ccc(C(F)(F)F)cc3C#N)CC2)cc1 [Compound 2-12]
ENDPOINT NAME: Ki
TEST RESULT: 0.01 to 0.1 µM

COMPOUND: COc1ncccc1-c1ccc(C2(C(=O)N[C@@H](C)CN(C)C)CCN(c3ccc(C(F)(F)F)cc3F)CC2)cn1 [Compound 1-295]
ENDPOINT NAME: Ki
TEST RESULT: < 0.01 µM

COMPOUND: CN1CC[C@H](NC(=O)NC2(c3ccc(-c4cccn4C)nc3)CCN(c3ccc(C(F)(F)F)cc3C#N)CC2)C1 [Compound 2-43]
ENDPOINT NAME: Ki
TEST RESULT: < 0.01 µM

Please report Ki for every entry that follows.
1. CCOc1ccccc1-c1ccc(C2(C(=O)NCCNC)CCN(c3ccc(C(F)(F)F)cc3Cl)CC2)cn1 [Compound 1-230]
2. CCOc1ncccc1-c1ccc(C2(NC(=O)[C@H]3CCNC3)CCN(c3ccc(C(F)(F)F)cc3C#N)CC2)cn1 [Compound 2-8]

Result block:
1. < 0.01 µM
2. < 0.01 µM

---

Give measured pKi for each item. Keep answers brief.
- SYSTEM NAME: hMC2 receptor (crude hMC2R membranes from CRE-bla-CHO-K1 cells stably expressing hMC2 receptor and hMRAP accessory protein) (Homo sapiens)
pKi: −log10 of the molar value.

Reference set (2 entries):
SMILES: Cc1cscc1-c1ccc(C2(C(=O)N[C@@H]3CCN(C)C3)CCN(c3ccc(C(F)(F)F)cc3C#N)CC2)cn1
pKi: > 8.00

SMILES: CCOc1ncccc1-c1ncc(C2(C(=O)N[C@H]3CCN(C)C3)CCN(c3ccc(C(F)(F)F)nc3C#N)CC2)cc1F
pKi: > 8.00

Query block: Requested read-out: pKi. Entry: COc1ncc(F)cc1-c1ccc(C2(C(=O)N[C@@H]3CCN(C)C3)CCN(c3ccc(C(F)(F)F)cc3C#N)CC2)cn1
Result block: > 8.00

All values here come from patent US12492181B2.
